# System: HepG2
# test name: cell viability relative to DMSO; higher = less toxic
# recorded conditions: 72 h; 10 nM
Listing of recorded cell viability by entry.

compound | cell viability (%)
C[C@](N)(Cc1ccc(O)c(O)c1)C(=O)O | 97.4
O=C(Oc1ccc([N+](=O)[O-])cc1)N1CCC(C(O)(c2ccc3c(c2)OCO3)c2ccc3c(c2)OCO3)CC1 | 114
CC[C@H](CC[C@@H](C)[C@H]1CC[C@H]2[C@@H]3CC=C4C[C@@H](O)CC[C@]4(C)[C@H]3CC[C@]12C)C(C)C | 114
CC(C)(CC(=O)N1CCCC1)NCC(=O)N1C[C@@H](F)C[C@H]1C#N | 102
COc1c(Nc2ccc(S(C)(=O)=O)nc2C)ncnc1OC1CCN(C(=O)OC(C)C)CC1 | 104
Cc1cc(Nc2ccc(NC(=O)c3ccc(Nc4ccnc5ccccc45)cc3)cc2)nc(N)n1 | 108
O=C(/C=C/c1cccc(S(=O)(=O)Nc2ccccc2)c1)NO | 98.7
O=C(OCC(COC(=O)c1cccnc1)(COC(=O)c1cccnc1)COC(=O)c1cccnc1)c1cccnc1 | 94.1
CC(C)(C)c1nc(-c2cccc(NS(=O)(=O)c3c(F)cccc3F)c2F)c(-c2ccnc(N)n2)s1 | 90.9
C[C@]12C/C(=C/O)C(=O)C[C@@H]1CC[C@@H]1[C@@H]2CC[C@@]2(C)[C@H]1CC[C@]2(C)O | 108
CC(C)(C)CC(C)(C)c1ccc(O)c(Cc2ccc(Cl)cc2Cl)c1 | 98
CCCC(=O)O[C@]1(C(=O)COC(C)=O)CC[C@H]2[C@@H]3C[C@H](F)C4=CC(=O)C=C[C@]4(C)[C@@]3(F)[C@@H](O)C[C@@]21C [difluprednate] | 93.7
CNC(=O)c1c(I)c(C(=O)NCC(=O)Nc2c(I)c(C(=O)O)c(I)c(C(=O)NCCO)c2I)c(I)c(N(C)C(C)=O)c1I | 98.4
N[C@H](Cc1cc(I)c(Oc2ccc(O)c(I)c2)c(I)c1)C(=O)O [liothyronine-(isomer)] | 99.7
O=C1Cc2c([nH]c3ccc(Br)cc23)-c2ccccc2N1 | 96.2
CC(C)N(CCCNC(=O)Nc1ccc(C(C)(C)C)cc1)C[C@H]1O[C@@H](n2cc(Br)c3c(N)ncnc32)[C@H](O)[C@@H]1O | 96.6
O=C(O)c1cn(-c2ccc(F)cc2)c2cc(N3CCNCC3)c(F)cc2c1=O | 98.8
Oc1cc(O)c2cc(O)c(-c3cc(O)c(O)c(O)c3)[o+]c2c1 | 102
Cc1cc(/C=C2\SC(=O)N(c3ccccc3)C2=O)c(C)n1-c1cccnc1 | 102
CC(C)=CCC[C@](C)(O[C@@H]1O[C@H](CO)[C@@H](O)[C@H](O)[C@H]1O)[C@H]1CC[C@]2(C)[C@@H]1[C@H](O)C[C@@H]1[C@@]3(C)CC[C@H](O[C@@H]4O[C@H](CO)[C@@H](O)[C@H](O)[C@H]4O[C@@H]4O[C@H](CO)[C@@H](O)[C@H](O)[C@H]4O)C(C)(C)[C@@H]3CC[C@]12C [ginsenoside-RD] | 97.3
Cn1cc(-c2ccc3c(c2)CCN3C(=O)Cc2cccc(C(F)(F)F)c2)c2c(N)ncnc21 | 98.3
CC(C)(C)NC(=O)[C@@H](c1cccnc1)N(C(=O)c1ccco1)c1ccc(C(C)(C)C)cc1 | 101
CN1CCCCC1CCN1c2ccccc2Sc2ccc([S+](C)[O-])cc21 (stereo unspecified) | 93.2
CNCCC=C1c2ccccc2CCc2ccccc21 | 106
CC(=O)N[C@H]1[C@@H](OC(C)C)O[C@H](COC(C)=O)[C@@H](OC(C)=O)[C@@H]1OC(C)=O | 102
Cc1cc(=O)oc2c(C=O)c(O)ccc12 | 106
CCc1nc(-c2cccc(C)c2)c(-c2ccnc(NC(=O)c3ccccc3)c2)s1 | 94.6
N#CCCCSC(=N)N | 97.4
CN(C)c1nc(N)c(C(=O)Nc2cccnc2)nc1Cl | 105
O=C(O)c1cc(=O)[nH]c(=O)[nH]1 | 117
CC(=O)[C@@]1(O)CC[C@H]2[C@@H]3C[C@H](C)C4=CC(=O)C=C[C@]4(C)[C@@]3(F)[C@@H](O)C[C@@]21C | 96.7
